Tested on: mitochondrial transcription (7S RNA) in HeLa cells
experiment summary: Quantitative real time-PCR assay of inhibition of mitochondrial transcription (cellular qPCR assay IMT)
Assay type: cell-based
study conditions: Homo sapiens, 4 h compound incubation, qRT-PCR according to Example 5, activity class
Experimental: Quantitative real-time PCR (qRT-PCR), based on the TagMan™ (Thermo Fisher Scientific, Waltham Mass.) technology, was carried out essentially as described in (Heid et al., 1996). […] For these measurements, three genes were used to compare the effect of the scrutinized compounds in relation to their concentration. […] Mitochondrial transcription in vivo was monitored by measurements 7S RNA. […]
recorded endpoint: IC50

// fetch mitochondrial transcription (7S RNA) in HeLa cells IC50 for Cc1ccsc1-c1cc(=O)oc2cc(O[C@H](C)C(=O)N3CCC[C@H](CC(=O)O)C3)ccc12
10 to 50 nM

// fetch mitochondrial transcription (7S RNA) in HeLa cells IC50 for CC(C)NC(=O)[C@@H](C)Oc1ccc2c(-c3ccccc3Cl)cc(=O)oc2c1
< 10 nM

// fetch mitochondrial transcription (7S RNA) in HeLa cells IC50 for C[C@@H](Oc1ccc2c(-c3ccc(F)cc3Cl)cc(=O)oc2n1)C(=O)N1CCC[C@H](C(=O)O)C1
50 to 500 nM

// fetch mitochondrial transcription (7S RNA) in HeLa cells IC50 for C[C@@H](Oc1ccc2c(-c3ccc(F)cc3Cl)cc(=O)oc2c1)C(=O)N1CCC[C@H](C(=O)O)C1
< 10 nM

// fetch mitochondrial transcription (7S RNA) in HeLa cells IC50 for Cc1ccccc1-c1cc(=O)oc2cc(O[C@H](C)C(=O)N3CCC[C@H](C(=O)O)C3)ccc12
< 10 nM

// fetch mitochondrial transcription (7S RNA) in HeLa cells IC50 for CC(Oc1ccc2c(-c3ccccc3Cl)cc(=O)oc2n1)C(=O)N1CCC[C@H](C(=O)O)C1 (mixture of isomers)
50 to 500 nM

// fetch mitochondrial transcription (7S RNA) in HeLa cells IC50 for COC(=O)CC1CCN(C(=O)C(C)Oc2ccc3c(-c4ccccc4Cl)cc(=O)oc3c2)CC1 (stereo not drawn)
50 to 500 nM

// fetch mitochondrial transcription (7S RNA) in HeLa cells IC50 for CCC(=O)N[C@H]1CCCN(C(=O)[C@@H](C)Oc2ccc3c(-c4ccc(F)cc4Cl)cc(=O)oc3c2)C1
< 10 nM

// fetch mitochondrial transcription (7S RNA) in HeLa cells IC50 for CC(C)OC(=O)[C@H]1CCCN(C(=O)[C@@H](C)Oc2ccc3c(-c4ccc(F)cc4Cl)cc(=O)oc3c2)C1
50 to 500 nM

// fetch mitochondrial transcription (7S RNA) in HeLa cells IC50 for CCNC(=O)C(C)Oc1ccc2c(-c3ccccc3C)cc(=O)oc2c1 (stereo not drawn)
10 to 50 nM

// fetch mitochondrial transcription (7S RNA) in HeLa cells IC50 for CCOC(=O)C[C@H]1CCCN(C(=O)[C@@H](C)Oc2ccc3c(-c4sccc4C)cc(=O)oc3c2)C1
< 10 nM

// fetch mitochondrial transcription (7S RNA) in HeLa cells IC50 for CCNC(=O)C(C)Oc1ccc2c(-c3ccc(F)cc3Cl)cc(=O)oc2c1 (stereo not drawn)
< 10 nM

// fetch mitochondrial transcription (7S RNA) in HeLa cells IC50 for CC(Oc1ccc2c(-c3ccccc3Cl)cc(=O)oc2c1)C(=O)N1CCC[C@H](C(=O)O)C1 (stereo partly drawn)
< 10 nM

// fetch mitochondrial transcription (7S RNA) in HeLa cells IC50 for CNC(=O)C[C@H]1CCCN(C(=O)[C@@H](C)Oc2ccc3c(-c4ccc(F)cc4Cl)cc(=O)oc3c2)C1
< 10 nM

// fetch mitochondrial transcription (7S RNA) in HeLa cells IC50 for CCOC(=O)CC1CCCN(C(=O)C(C)Oc2ccc3c(-c4ccccc4Cl)cc(=O)oc3c2)C1 (stereo not drawn)
10 to 50 nM
